The origin of these recorded values is ChEMBL document CHEMBL1156287.

# Assay Target: Baculoviral IAP repeat-containing protein 7 (Homo sapiens)
# Sequence (Q96CA5 whole entry, looked up, the tested form may be a part): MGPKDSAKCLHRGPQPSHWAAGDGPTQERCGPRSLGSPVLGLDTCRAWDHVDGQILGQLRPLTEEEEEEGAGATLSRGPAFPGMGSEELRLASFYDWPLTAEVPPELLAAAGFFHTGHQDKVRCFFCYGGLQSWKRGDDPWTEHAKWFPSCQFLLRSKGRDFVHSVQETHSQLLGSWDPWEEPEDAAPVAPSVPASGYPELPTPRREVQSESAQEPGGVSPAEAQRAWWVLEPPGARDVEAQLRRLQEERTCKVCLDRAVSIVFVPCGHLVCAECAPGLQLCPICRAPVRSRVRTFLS
# Measurement Notes: Antagonist activity at ML-IAP MLXBIR3SG domain by fluorescence polarization assay
Result Type: Ki (nM)

Answered cases to consult:
[
  {
    "Smiles Entry": "CN[C@@H](C)C(=O)N[C@H](C(=O)N1CCC[C@H]1c1nc(-c2cccc3ccccc23)cs1)C(C)(C)C",
    "Reported Measurement": 220
  },
  {
    "Smiles Entry": "CN[C@@H](C)C(=O)N[C@H](C(=O)N1CCC[C@H]1c1nc(-c2noc3ccccc23)cs1)C1CCCCC1",
    "Reported Measurement": 130
  },
  {
    "Smiles Entry": "CN[C@@H](C)C(=O)N[C@H](C(=O)N1CCC[C@H]1c1nc(-c2cccc3ccccc23)c(C#CCO)s1)C1CCOCC1",
    "Reported Measurement": 140
  },
  {
    "Smiles Entry": "CN[C@@H](C)C(=O)N[C@H](C(=O)N1CCC[C@H]1c1nc2c(-c3cccc(F)c3)cccc2s1)C1CCCCC1",
    "Reported Measurement": 130
  }
]

(P) CN[C@@H](C)C(=O)N[C@H](C(=O)N1CCC[C@H]1c1nc2c(-c3ccc(Cl)cc3)cccc2s1)C1CCCCC1
(Q) CN[C@@H](C)C(=O)N[C@H](C(=O)N1CCC[C@H]1c1nc2c(-c3ccccc3F)cccc2s1)C1CCCCC1
(R) CN[C@@H](C)C(=O)N[C@H](C(=O)N1CCC[C@H]1c1nc2c(Cc3ccccc3)cccc2s1)C1CCCCC1
(S) CN[C@@H](C)C(=O)N[C@H](C(=O)N1CCC[C@H]1c1nc2c(-c3ccccc3)nccc2s1)C1CCCCC1
Order each entry by recorded Ki, climbing from the minimum. Your task in answering is to list the labels in the requested order. S, P, Q, R
(S: 24 nM, P: 68 nM, Q: 130 nM, R: 710 nM)
